- system_tested: Sentrin-specific protease 6 (Homo sapiens) (UniProt Q9GZR1)
- Sequence (Q9GZR1 628-1112 limits assumed): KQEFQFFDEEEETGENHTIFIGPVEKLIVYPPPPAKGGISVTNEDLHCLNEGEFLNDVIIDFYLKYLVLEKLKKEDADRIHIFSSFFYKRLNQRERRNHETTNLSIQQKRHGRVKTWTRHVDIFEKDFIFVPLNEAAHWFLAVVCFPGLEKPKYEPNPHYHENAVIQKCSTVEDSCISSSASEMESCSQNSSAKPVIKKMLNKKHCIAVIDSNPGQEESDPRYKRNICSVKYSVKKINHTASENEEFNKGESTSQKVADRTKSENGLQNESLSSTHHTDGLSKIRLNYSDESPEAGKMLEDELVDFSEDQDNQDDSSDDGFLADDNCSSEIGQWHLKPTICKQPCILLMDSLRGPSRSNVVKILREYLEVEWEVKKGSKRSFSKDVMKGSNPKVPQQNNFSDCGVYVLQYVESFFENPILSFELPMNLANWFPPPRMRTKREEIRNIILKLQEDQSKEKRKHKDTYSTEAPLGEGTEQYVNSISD
- procedure_details: SENP6 protease inhibitors, primary screen, biochemical, luminescence, uHTS (AID 2599)
- run_parameters: Recombinant SENP6 catalytic domain, aminoluciferin luminescence; at 10 µM
Hit rate of the full screen: of about 330,000 compounds, about 5,800 (1.8%) were called active.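 How the source made its calls: active means inhibition above about 50% at the single tested dose (limit read from the data); inactive means the rest.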 For the sample, actives were picked, then their nearest neighbours and some compounds at random.
Would you mind answering with one of these outcomes? active, inactive

In: # outcome recorded in this test, key = `O=C(c1cc(-c2ccncc2)nc2ccccc12)N1CCC2(CC1)OCCO2`
Out: inactive

In: Status in this test for `O=C(Nc1cccc2ccccc12)N1CCC2(CC1)OCCO2` ?
Out: active

In: GET /call?item= `COc1ccc(NC(=O)N2CCC3(CC2)OCCO3)c(OC)c1` returns the recorded outcome of this test.
Out: inactive

In: What outcome does the record of this test show for `O=C(NC(=S)N1C[C@H]2C[C@H](C1)c1cccc(=O)n1C2)c1ccc(F)cc1` ?
Out: inactive

In: Field: outcome | Entry: `CCOC(=O)c1c(N)n(CCN2CCOCC2)c2nc3ccccc3nc12`
Out: inactive

Origin of measurements: PubChem BioAssay AID2599
